Assay: Oral bioavailability in rat
Format: ADME, organism-based
Settings: in vivo
MEASUREMENT_KIND: bioavailability

The value of bioavailability measured for the compound CCOC(=O)[C@H](C)NP(=O)(N[C@@H](C)C(=O)OCC)c1ccc(-c2nc3c(N)c(F)cc(CC)c3n2CC(C)C)o1 turned out to be > 10%

====

Record form. Attribute: fraction unbound. Fill in for each entry.
Experiment: Plasma protein binding in Sprague-Dawley rat
Type: ADME, cell-free
Details: read-out: PPB (converted)

So, CC(C)Cc1sc(N)nc1-c1ccc(P(=O)(O)O)o1 ? Its fraction unbound was 0.1

The recorded fraction unbound for CCc1cc(F)c(N)c2nc(-c3ccc(P(=O)(O)O)o3)n(CC(C)C)c12 is 0.01

====

Assay: Half life in Sprague-Dawley rat
Type: ADME, organism-based
Details: in vivo
Would you kindly list half-life for each of these compounds?
Answer with a number only, understood to be in min.

The compound CC(C)Cc1sc(N)nc1-c1ccc(P(=O)(O)O)o1 showed half-life equal to 39

get_value(item= CCc1cc(F)c(N)c2nc(-c3ccc(P(=O)(O)O)o3)n(CC(C)C)c12 , readout=half-life) returns 45

====

Biological target: Fructose-1,6-bisphosphatase 1 (Homo sapiens)
Sequence (P09467 whole entry): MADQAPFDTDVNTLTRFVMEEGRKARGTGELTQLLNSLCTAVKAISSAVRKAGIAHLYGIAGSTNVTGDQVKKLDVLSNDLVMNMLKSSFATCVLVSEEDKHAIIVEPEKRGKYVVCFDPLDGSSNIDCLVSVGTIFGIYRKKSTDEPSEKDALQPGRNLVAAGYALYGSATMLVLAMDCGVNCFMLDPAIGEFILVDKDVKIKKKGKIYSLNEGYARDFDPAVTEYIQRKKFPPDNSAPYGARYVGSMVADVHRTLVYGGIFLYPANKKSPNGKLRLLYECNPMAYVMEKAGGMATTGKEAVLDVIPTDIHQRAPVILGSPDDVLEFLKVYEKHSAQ
MEASUREMENT_KIND: pIC50
Please note pIC50 is a logarithmic value: minus log10 of concentration in mol/L. Answer with that number alone.

# pIC50 (compound: CCc1nc(-c2ccc(P(=O)(O)O)o2)c(CC(C)C)s1 ) is 6.40

The reported value for Nc1nc(-c2ccc(P(=O)(O)O)o2)c(I)s1 in terms of pIC50 is 7.00

Noted for CC(C)Cc1sc(C#N)nc1-c1ccc(P(=O)(O)O)o1 : its pIC50 reads 5.70

# compound CSc1ccc(-c2sc(N)nc2-c2ccc(P(=O)(O)O)o2)cc1 ; its pIC50 = 7.68

Short answer for Nc1nc(-c2ccc(P(=O)(O)O)o2)c(N2CCOCC2)s1 : pIC50 was 7.80

The compound identified as Nc1nc(-c2ccc(P(=O)(O)O)o2)c(-c2ccc3ccccc3c2)s1 registered its pIC50 at 7.92

Input Nc1nc(C(=O)NCP(=O)(O)O)c(-c2cccs2)s1 . Output pIC50: 6.02

Please fill in: pIC50 reported for CC(C)Cc1sc(CO)nc1-c1ccc(P(=O)(O)O)o1 = 6.66

Memo: Nc1nc(-c2ccc(P(=O)(O)O)o2)c(-c2ccccc2)s1 , reported pIC50: 7.85

The recorded pIC50 for CSc1nc(-c2ccc(P(=O)(O)O)o2)c(CC(C)C)s1 is 6.05

Per the records, this compound ( C=Cc1nc(-c2ccc(P(=O)(O)O)o2)c(CC(C)C)s1 ) has pIC50 equal to 5.92

The compound identified as COc1ccc(-c2sc(N)nc2-c2ccc(P(=O)(O)O)o2)cc1 registered its pIC50 at 7.66

Short answer for CCCc1sc(N)nc1C(=O)OCP(=O)(O)O : pIC50 was 7.30

Lab book: pIC50 of CS(=O)(=O)c1ccc(-c2sc(N)nc2-c2ccc(P(=O)(O)O)o2)cc1 noted as 7.39

Reported pIC50 ( CC(C)(C)Sc1sc(N)nc1-c1ccc(P(=O)(O)O)o1 ) = 7.62

====

Experiment: Oral bioavailability in Sprague-Dawley rat
Type: ADME, organism-based
Settings: Sprague-Dawley, in vivo
Assign bioavailability to each entry below.
Report the value in % with no unit label.

// bioavailability value for CCOC(=O)[C@H](C)NP(=O)(N[C@@H](C)C(=O)OCC)c1ccc(-c2nc3c(N)c(F)cc(CC)c3n2CC(C)C)o1 : 5

Entry CCc1cc(F)c(N)c2nc(-c3ccc(P(=O)(O)O)o3)n(CC(C)C)c12 ; bioavailability = 2

====

Test: Volume of distribution in Sprague-Dawley rat
Type: ADME, organism-based
Conditions: in vivo
MEASUREMENT_KIND: Vd

get_value(item= CCc1cc(F)c(N)c2nc(-c3ccc(P(=O)(O)O)o3)n(CC(C)C)c12 , readout=Vd) returns 0.25 L/kg

Given item CC(C)Cc1sc(N)nc1-c1ccc(P(=O)(O)O)o1 , the value recorded as its Vd is 0.18 L/kg

====

Experiment: Oral bioavailability in dog
Type: ADME, organism-based, Canis lupus familiaris
Details: in vivo
MEASUREMENT_KIND: bioavailability

So for CCOC(=O)[C@H](C)NP(=O)(N[C@@H](C)C(=O)OCC)c1ccc(-c2nc3c(N)c(F)cc(CC)c3n2CC(C)C)o1 , the logged bioavailability turned out to be > 10%

====

Assay: Plasma protein binding in human
Type: ADME, cell-free
Conditions: read-out: PPB (converted)
MEASUREMENT_KIND: fraction unbound
# respond with the number and nothing more

The reported fraction unbound of the compound CCc1cc(F)c(N)c2nc(-c3ccc(P(=O)(O)O)o3)n(CC(C)C)c12 was 0.001

Reported fraction unbound ( CC(C)Cc1sc(N)nc1-c1ccc(P(=O)(O)O)o1 ) = 0.07
